Ref: PubChem BioAssay AID248

System: L1210 leukemia ip in BDF1 mice, survival T/C
TEST SUMMARY: NCI In Vivo Anticancer Drug Screen. Data for tumor model L1210 Leukemia (intraperitoneal) in B6D2F1 (BDF1) mice
CONDITION DESCRIPTION: endpoint: mean survival time; dose: 50.0 mg/kg/injection; schedule: Q01DX001 (ip); vehicle: Klucel (hydroxypropylcellulose) (HPC); higher = longer survival
Inconclusive results and toxic doses are left out.
Parameter: T/C. Scope: all listed entries.

Worked cases, T/C given:
MOLECULE	SYSTEM NAME	T/C
Cc1ccc2[nH]c3c(c2c1)C[P+](Cc1cccc2ccccc12)(c1ccccc1)CC3 (stereo not given)	L1210 leukemia ip in BDF1 mice, survival T/C	92 % of control
COc1ccc(C[n+]2cc([O-])on2)cc1	L1210 leukemia ip in BDF1 mice, survival T/C	99 % of control
Nc1nc2c(ncn2-c2cccc(NS(=O)(=O)c3cccc(S(=O)(=O)F)c3)c2)c(=O)[nH]1	L1210 leukemia ip in BDF1 mice, survival T/C	98 % of control
c1cnc2c(c1)Oc1cccnc1N2	L1210 leukemia ip in BDF1 mice, survival T/C	98 % of control

Attention now turns to another entry.
Exercise: Recall and state the measured T/C for COC(=O)C(c1ccccc1)C1(O)CCN(CC2COc3ccccc3O2)CC1 (stereo not given) .
Solution: 93 % of control
